Molecular target: Phosphoglycerate kinase 1 (Homo sapiens)
Sequence (P00558 whole entry): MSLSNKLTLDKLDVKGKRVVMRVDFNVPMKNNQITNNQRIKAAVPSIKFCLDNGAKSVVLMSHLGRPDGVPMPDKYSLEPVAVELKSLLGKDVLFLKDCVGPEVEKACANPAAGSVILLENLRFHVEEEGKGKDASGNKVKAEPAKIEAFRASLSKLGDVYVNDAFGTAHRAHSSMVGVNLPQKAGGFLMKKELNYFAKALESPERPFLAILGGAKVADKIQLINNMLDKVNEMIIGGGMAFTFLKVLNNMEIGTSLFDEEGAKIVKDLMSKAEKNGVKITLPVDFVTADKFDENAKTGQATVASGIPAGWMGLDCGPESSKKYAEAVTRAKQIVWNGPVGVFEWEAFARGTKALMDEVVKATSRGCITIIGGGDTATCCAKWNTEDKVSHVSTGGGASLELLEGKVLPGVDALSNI
attribute_measured: IC50
Hey, just the number and the unit after it is fine.

Use the examples below as a reference point.
smiles_str=CCNc1nc2cc(OC)c(Cl)cc2nc1-c1ccc2c(ccn2C)c1 recorded_result="220 nM"
smiles_str=CCNc1nc2cc(OC)c(Cl)cc2nc1-c1csc2ccccc12 recorded_result="2000 nM"
smiles_str=CN1CCN(CCNc2nc3cc(Cl)c(C#N)cc3nc2-c2ccccn2)CC1 recorded_result="346 nM"
smiles_str=CCNc1nc2cc(OC)c(OC)cc2nc1Br recorded_result="4640 nM"
smiles_str=CCNc1nc2cc(OC)c(OC)cc2nc1NCCCN1CCCC1=O recorded_result="1810 nM"

Ask: // lookup IC50 | system=Phosphoglycerate kinase 1 (Homo sapiens) | key= CCNc1nc2cc(OC)c(Cl)cc2nc1-c1ccc2occc(=O)c2c1
Reply: 1600 nM

Ask: // lookup IC50 | system=Phosphoglycerate kinase 1 (Homo sapiens) | key= CCNc1nc2cc(OC)c(Cl)cc2nc1NCc1cccnc1
Reply: 129 nM

Ask: // lookup IC50 | system=Phosphoglycerate kinase 1 (Homo sapiens) | key= CCNc1nc2cc(Cl)c(NC(C)=O)cc2nc1NCC
Reply: 4140 nM

Ask: // lookup IC50 | system=Phosphoglycerate kinase 1 (Homo sapiens) | key= CCNc1nc2cc(Cl)c(C#CCCC#N)cc2nc1NCC
Reply: 54 nM

Ask: // lookup IC50 | system=Phosphoglycerate kinase 1 (Homo sapiens) | key= CCNc1nc2cc(Cl)c(C#CCO)cc2nc1NCC
Reply: 1 nM

Ask: // lookup IC50 | system=Phosphoglycerate kinase 1 (Homo sapiens) | key= CCNc1nc2cc(OC)c(Cl)cc2nc1-c1ccc(C(C)=O)s1
Reply: 1100 nM

Ask: // lookup IC50 | system=Phosphoglycerate kinase 1 (Homo sapiens) | key= CCNc1nc2cc(OC)c(OC)cc2nc1NCC
Reply: 50000 nM

---

Quick reference for pIC50 among some compounds
Target: Phosphoglycerate kinase 1 (Homo sapiens, UniProt P00558)
Sequence (P00558 whole entry): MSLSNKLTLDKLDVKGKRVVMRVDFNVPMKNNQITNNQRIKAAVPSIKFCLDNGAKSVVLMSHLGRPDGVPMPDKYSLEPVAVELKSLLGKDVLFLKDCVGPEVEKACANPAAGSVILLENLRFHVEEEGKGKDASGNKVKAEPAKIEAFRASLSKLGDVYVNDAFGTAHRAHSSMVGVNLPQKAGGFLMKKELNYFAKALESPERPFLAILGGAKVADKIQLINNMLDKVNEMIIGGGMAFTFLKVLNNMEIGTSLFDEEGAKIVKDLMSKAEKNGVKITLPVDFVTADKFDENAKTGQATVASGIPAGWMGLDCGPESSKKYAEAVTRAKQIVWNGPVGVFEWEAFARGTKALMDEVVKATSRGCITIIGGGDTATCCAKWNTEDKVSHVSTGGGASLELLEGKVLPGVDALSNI
Please keep in mind that pIC50 is minus log10 of the molar concentration; only the number is needed.

Use the examples below as a reference point.
smiles_str=CCNc1nc2cc(OC)c(Cl)cc2nc1NCCCN1CCN(C)CC1 recorded_result=6.71
smiles_str=CCNc1nc2cc(Cl)c(C#N)cc2nc1NCC recorded_result=7.42
smiles_str=CCNc1nc2cc(OC)c(Cl)cc2nc1NCCN1CCN(C)CC1 recorded_result=6.76

Ask: Sample COc1cc2nc(NCCCN3CCCC3)c(-c3ccncc3)nc2cc1OC — what was its pIC50?
Reply: 5.00

Ask: Sample CCNc1nc2cc(Cl)c(C#Cc3ccoc3)cc2nc1NCC — what was its pIC50?
Reply: 5.99

Ask: Sample CCNc1nc2cc(Cl)c(OC(F)(F)F)cc2nc1NCC — what was its pIC50?
Reply: 5.93

Where do these numbers come from? They come from ChEMBL document CHEMBL3727373.
